What plasma concentration was measured for each of the following?
Experiment: Monitoring of the plasma concentration of the main oligosaccharides of a VLMWH in human volunteers (plasma filtration + anion-exchange HPLC)
Type: in vivo
Conditions: 5 h after administration of VLMWH (2500 Da) 1.4 mg/kg
Answers are plain numbers, in nM.

{"columns": ["compound", "value-observed"],
 "data": [
  ["CC(=O)NC1C(OC2C(C(=O)O)OC(OC3C(COS(=O)(=O)O)OC(OC4C(C(=O)O)OC(OC5C(COS(=O)(=O)O)OC(O)C(NS(=O)(=O)O)C5O)C(OS(=O)(=O)O)C4O)C(NS(=O)(=O)O)C3OS(=O)(=O)O)C(O)C2O)OC(COS(=O)(=O)O)C(OC2OC(C(=O)O)=CC(O)C2O)C1O (centres unmarked) [ΔIIaIIsIs]", 90]
]}

I would be grateful if you could provide plasma concentration for each of the following entries.
1. O=C(O)C1=CC(O)C(OS(=O)(=O)O)C(OC2C(COS(=O)(=O)O)OC(OC3C(C(=O)O)OC(OC4C(COS(=O)(=O)O)OC(OC5C(C(=O)O)OC(OC6C(COS(=O)(=O)O)OC(O)C(NS(=O)(=O)O)C6O)C(OS(=O)(=O)O)C5O)C(NS(=O)(=O)O)C4O)C(OS(=O)(=O)O)C3O)C(NS(=O)(=O)O)C2O)O1 (centres unmarked) [ΔIsIsIs]
2. O=C(O)C1=CC(O)C(OS(=O)(=O)O)C(OC2C(COS(=O)(=O)O)OC(OC3C(C(=O)O)OC(OC4C(COS(=O)(=O)O)OC(O)C(NS(=O)(=O)O)C4O)C(OS(=O)(=O)O)C3O)C(NS(=O)(=O)O)C2O)O1 (centres unmarked) [ΔIsIs]
3. O=C(O)C1=CC(O)C(OS(=O)(=O)O)C(OC2C(COS(=O)(=O)O)OC(O)C(NS(=O)(=O)O)C2O)O1 (centres unmarked) [ΔIs]
4. CC(=O)NC1C(OC2C(C(=O)O)OC(OC3C(COS(=O)(=O)O)OC(OC4C(C(=O)O)OC(OC5C(COS(=O)(=O)O)OC(OC6C(C(=O)O)OC(OC7C(COS(=O)(=O)O)OC(O)C(NS(=O)(=O)O)C7O)C(OS(=O)(=O)O)C6O)C(NS(=O)(=O)O)C5O)C(OS(=O)(=O)O)C4O)C(NS(=O)(=O)O)C3OS(=O)(=O)O)C(O)C2O)OC(COS(=O)(=O)O)C(OC2OC(C(=O)O)=CC(O)C2O)C1O (centres unmarked) [ΔIIaIIsIsIs]

Return:
1: 10; 2: 50; 3: 40; 4: 30
